Assayed target: human NET (Homo sapiens)
Construct: expressed in transfected cells; host or cells: HEK293 (gift of Dr. Hoener, F. Hoffmann-La Roche)
Sequence (P23975 whole entry): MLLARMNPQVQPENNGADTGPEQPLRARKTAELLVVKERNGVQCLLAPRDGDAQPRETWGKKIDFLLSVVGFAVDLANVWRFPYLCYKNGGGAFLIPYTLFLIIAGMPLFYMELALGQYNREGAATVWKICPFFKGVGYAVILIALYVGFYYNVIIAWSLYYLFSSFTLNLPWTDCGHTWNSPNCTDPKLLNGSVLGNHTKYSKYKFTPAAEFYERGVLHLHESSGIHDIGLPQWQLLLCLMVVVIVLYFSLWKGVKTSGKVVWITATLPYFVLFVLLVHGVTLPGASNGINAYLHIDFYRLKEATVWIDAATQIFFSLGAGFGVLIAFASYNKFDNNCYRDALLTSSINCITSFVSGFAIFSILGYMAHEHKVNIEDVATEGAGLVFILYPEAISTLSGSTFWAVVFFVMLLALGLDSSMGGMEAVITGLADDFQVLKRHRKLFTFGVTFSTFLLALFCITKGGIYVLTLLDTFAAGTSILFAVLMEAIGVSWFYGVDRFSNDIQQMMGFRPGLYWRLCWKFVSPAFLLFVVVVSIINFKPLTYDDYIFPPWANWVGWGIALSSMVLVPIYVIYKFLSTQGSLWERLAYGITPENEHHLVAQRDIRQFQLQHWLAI
Type: cell-based
Details: 100µM; Control = 100%
Listing of entries alongside the reported NET, Mean as % (Figure 8B).

Compound	Output unit	NET, Mean as % (Figure 8B)
O=C(c1ccco1)N(Cc1ccc(F)cc1)c1ccccc1 [Compound 19b]	%	113
O=C(c1cc[nH]c1)N(Cc1ccc(F)cc1)c1ccccc1 [Compound 12b]	%	103
O=C(c1ccco1)N(Cc1ccc(C(F)(F)F)cc1)c1ccccc1 [Compound 19d]	%	118
COc1ccc(N(Cc2ccc(F)cc2)C(=O)c2cc[nH]c2)cc1 [Compound 12a]	%	113
